# MEASUREMENT_PROTOCOL: NCI Yeast Anticancer Drug Screen. Data for the mlh1 strain (AID 171)
# CONDITION_DESCRIPTION: S. cerevisiae mlh1 strain growth inhibition; at 33.0 µM
This is part of a sample that, as a whole, favours compounds with a hit. Of some 79,000 tested, about 15% had one in any assay. Active and inactive are the calls of the source. No stated cut-off is given here; in the data, active means growth inhibition above about 70%; inactive means the rest.
Classes used: active, inactive

>>> print(df.to_string())
                                    compound  qualitative_label
 0     O=C(C(Cl)=C(N1CCCCC1)N1CCCCC1)C(Cl)Cl           inactive
 1                     Nc1ccc2cc(Br)ccc2c1Br           inactive
 2  CN(C)CCNCCCNc1c2ccccc2nc2cccc([N+](=O)[O-])c12           inactive
 3  O=C(c1ccccc1)[C@H]1Nc2ccc(Cl)cc2[C@H]2OCCC[C@@H]12           inactive
 4                    Nc1cc(Cl)ccc1Nc1ccccc1           inactive
 5  CC(/C=C/c1ccc([N+](=O)[O-])o1)=N/N1CC(CN2CCOCC2)OC1=O (stereo unspecified)           inactive
 6  O=P(C(=S)Nc1c(Cl)cccc1Cl)(c1ccccc1)c1ccccc1           inactive
 7  C=CC(C)(C)N1C(=O)C(C(C)=O)=C(O)C1Cc1c[nH]c2ccccc12 (stereo unspecified)           inactive
 8  O=C1C[C@H]2[C@H](c3ccc(Br)cc3)[C@H]3C(=O)c4ccccc4NC(=O)[C@@H]3[C@@]2(O)c2ccccc2N1           inactive
 9  COC(=O)C(Cl)(Cl)N=Nc1c(Cl)cc(Cl)c(C)c1Cl             active
10   CN(C)CCNc1ccc2ncn3c4ccc(O)cc4c(=O)c1c23           inactive
